A collection of compounds and their measured inhibition
assayed.system: P2X purinoceptor 1 (Rattus norvegicus) (UniProt P47824)
Sequence (whole entry): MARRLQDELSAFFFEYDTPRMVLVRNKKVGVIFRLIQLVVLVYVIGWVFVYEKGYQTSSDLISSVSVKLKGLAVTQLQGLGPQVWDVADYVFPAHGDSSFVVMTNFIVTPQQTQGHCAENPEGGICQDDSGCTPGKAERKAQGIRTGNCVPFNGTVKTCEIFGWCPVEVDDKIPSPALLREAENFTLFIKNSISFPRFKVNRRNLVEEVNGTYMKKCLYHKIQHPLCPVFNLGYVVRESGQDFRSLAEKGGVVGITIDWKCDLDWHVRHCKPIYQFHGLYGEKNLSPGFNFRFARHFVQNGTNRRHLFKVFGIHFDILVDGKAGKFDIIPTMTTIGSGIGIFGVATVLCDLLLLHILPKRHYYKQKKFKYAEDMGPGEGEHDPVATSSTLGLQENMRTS
test.protocol: Inhibition of inward ion current elicited by ATP at P2X1 receptor expressed in Xenopus oocytes at 10 uM
Type: functional, cell-based
condition.label: Oocyte
Provide the reading as a plain figure in %.

[
  {
    "compound.structure.string": "Cc1nc(/N=N/c2cc(S(=O)(=O)O)ccc2Cl)c(COP(=O)(O)O)c(COP(=O)(O)O)c1O",
    "units": "%",
    "inhibition": 78
  },
  {
    "compound.structure.string": "Cc1nc(/N=N/c2ccccc2)c(COP(=O)(O)O)c(COP(=O)(O)O)c1O",
    "units": "%",
    "inhibition": 50
  },
  {
    "compound.structure.string": "Cc1nc(/N=N/c2cc(S(=O)(=O)O)ccc2Cl)c2c(c1O)COP(=O)(O)OC2",
    "units": "%",
    "inhibition": 43
  }
]

Query: Using the record for Cc1nc(/N=N/c2ccc(C(=O)O)cc2)c2c(c1O)COP(=O)(O)OC2 , report its inhibition.
Result: 39

Query: Using the record for Cc1nc(/N=N/c2cc(S(=O)(=O)O)ccc2S(=O)(=O)O)c(COP(=O)(O)O)c(COP(=O)(O)O)c1O , report its inhibition.
Result: 27
